Reference source: ChEMBL document CHEMBL1151564

# tested target: UniProt P41144
# Sequence (P41144 whole entry): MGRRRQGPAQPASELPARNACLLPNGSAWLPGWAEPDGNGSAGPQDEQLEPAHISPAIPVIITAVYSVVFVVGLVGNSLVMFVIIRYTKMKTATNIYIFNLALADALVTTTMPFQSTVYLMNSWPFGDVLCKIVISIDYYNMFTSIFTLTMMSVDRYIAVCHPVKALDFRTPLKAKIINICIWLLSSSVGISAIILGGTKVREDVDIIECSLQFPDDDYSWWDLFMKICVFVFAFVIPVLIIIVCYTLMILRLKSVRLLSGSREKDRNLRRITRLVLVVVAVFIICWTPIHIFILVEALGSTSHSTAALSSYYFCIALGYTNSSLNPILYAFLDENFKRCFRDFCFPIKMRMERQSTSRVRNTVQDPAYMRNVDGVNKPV
measured parameter: pKi
The quantity pKi is defined as the negative base-10 logarithm of the molar concentration.

Given the compound CC(=O)Nc1cccc([C@H](CN2CCCC2)N(C)C(=O)Cc2ccc(Cl)c(Cl)c2)c1 , what is its reported pKi?
7.76

Which pKi is listed for CN(C(=O)Cc1ccc(Cl)c(Cl)c1)[C@H](CN1CCCC1)c1cccc(N/C(S)=N/c2ccc(-c3c4ccc(=O)cc-4oc4cc(O)ccc34)c(C(=O)O)c2)c1 ?
8.85

I would be grateful if you could share the reported pKi for CN(C(=O)Cc1ccc(Cl)c(Cl)c1)[C@@H](CN1CCCC1)c1cccc(N/C(S)=N/c2ccc(-c3c4ccc(=O)cc-4oc4cc(O)ccc34)c(C(=O)O)c2)c1 .
6.86

Could you tell me which pKi is on file for CN(C(=O)Cc1ccc(Cl)c(Cl)c1)C(CN1CCCC1)c1cccc(N/C(S)=N/c2ccc(-c3c4ccc(=O)cc-4oc4cc(O)ccc34)c(C(=O)O)c2)c1 (stereo not given) ?
8.09

pKi for CC(=O)Nc1cccc([C@@H](CN2CCCC2)N(C)C(=O)Cc2ccc(Cl)c(Cl)c2)c1 ?
10.07
